Molecular target: human adrenergic α1A receptor (Homo sapiens, UniProt P35348)
Construct: expressed in transfected cells; host or cells: CHO-K1 or HEK293 cells
Sequence (P35348 1-466): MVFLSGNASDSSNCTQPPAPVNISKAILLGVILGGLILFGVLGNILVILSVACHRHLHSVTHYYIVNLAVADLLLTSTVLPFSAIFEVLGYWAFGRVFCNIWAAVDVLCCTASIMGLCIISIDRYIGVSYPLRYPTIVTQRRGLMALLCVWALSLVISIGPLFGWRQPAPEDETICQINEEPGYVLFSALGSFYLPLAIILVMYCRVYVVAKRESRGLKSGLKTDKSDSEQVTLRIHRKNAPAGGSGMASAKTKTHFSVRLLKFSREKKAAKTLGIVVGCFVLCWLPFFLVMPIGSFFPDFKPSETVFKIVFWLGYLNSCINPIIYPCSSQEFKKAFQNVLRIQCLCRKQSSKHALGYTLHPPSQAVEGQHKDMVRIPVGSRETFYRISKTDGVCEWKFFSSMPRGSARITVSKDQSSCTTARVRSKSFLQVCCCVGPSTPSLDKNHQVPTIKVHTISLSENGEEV
Assay: Agonistic/antagonistic activity in G protein dependent pathway (aequorin intracellular calcium luminescence), α1A
Assay type: cell-based
Settings: 0.1 μM; against 10 μM endogenous ligand; read-out: Inhibitory activity on each receptor (%): α1A
readoutName: inhibition at 0.1 µM (%)

(A) Cc1ncc(CN2CCC(c3ccccn3)CC2)c(C)n1 [Example 44]
(B) Nc1ncc(CN2CCC(c3cccnc3)CC2)cn1 [Example 37]
(C) Cc1ncc(CN2CCC(c3cccnc3)CC2)c(C)n1 [Example 45]
Prompt: Could you arrange the 3 compounds above by inhibition at 0.1 µM, starting with the largest number? Field: ranking. Enter the labels in the order requested.
Completion: A, C, B
(A: 2.7%, C: -5.6%, B: -22%)

Value source: patent US9732065B2
